- System: biotinyl-Trp-oxazolone
- test summary: self-aminoacylation, catalytic enhancement (BWO) (fold over background); higher = more active; k-Seq, kA / k0A0; sequences stand for … in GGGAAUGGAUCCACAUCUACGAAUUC…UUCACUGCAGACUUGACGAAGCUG
Fewer inactive variants are shown than the library holds.
Lab note: anything with self-aminoacylation at or over 1 counts as fulfilled; the rest go in not fulfilled.

Inquiry: Could you please find out whether CUACUUCAAACAAUUGGACUG [Fam1A.1 aminoacylation ribozyme variant] has self-aminoacylation that meets 1 or exceeds it?
Reply text: not fulfilled

Inquiry: Hello, I need to know if CCUCACUUGAAGCAAUCGGUC [Fam1B.1 aminoacylation ribozyme variant] has measured self-aminoacylation not below 1. Thanks!
Reply text: not fulfilled

Inquiry: Identify whether the reported self-aminoacylation of the following sequence is 1 or greater: CUACUUCAAACAGUCGGACUG [Fam1A.1 aminoacylation ribozyme variant]
Reply text: not fulfilled

Inquiry: Hi, just wondering whether CUACUUCAAACAGUCGCUCUG [Fam1A.1 aminoacylation ribozyme variant] shows self-aminoacylation of 1 or higher.
Reply text: fulfilled

Inquiry: Quick check: does AUUACCCUGUUCAGCGAGUGA [Fam2.1 aminoacylation ribozyme variant] have self-aminoacylation greater than or equal to 1?
Reply text: fulfilled

Inquiry: Quick check: does AUUCAACUAGUUCAUCGGGUG [Fam2.2 aminoacylation ribozyme variant] have self-aminoacylation greater than or equal to 1?
Reply text: fulfilled

Inquiry: Confirm if self-aminoacylation reported for the sequence CUACUUCAAACAAUCGGCCUA [Fam1A.1 aminoacylation ribozyme variant] is 1 or above.
Reply text: fulfilled

Inquiry: Can CUACUUCAAACAAUGGGUCUC [Fam1A.1 aminoacylation ribozyme variant] be said to have self-aminoacylation at or above 1?
Reply text: not fulfilled

Inquiry: Reported self-aminoacylation reaches at least 1 for AUUCCGCUGGUCAUCGAGUGA [Fam2.1 aminoacylation ribozyme variant] ?
Reply text: fulfilled

The reported measurements were obtained from the supplement of paper PMC9233669.
